B1: NELF-E aptamer (parent)
chain: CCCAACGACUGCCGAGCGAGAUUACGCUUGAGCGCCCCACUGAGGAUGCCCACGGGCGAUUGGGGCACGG

- Variants of: B1
- EXPERIMENT_DESCRIPTION: HiTS-RAP
- TEST_CONTEXT: with NELF-E (Drosophila)
Label scheme for Kd: label 0 = under 6 nM, label 1 = from 6 nM up to 9 nM, label 2 = 9 nM and over

VAR | QUALITATIVE_LABEL
C13G A52U | label 2
G7U G14A | label 1
A8C U23G | label 1
C13U | label 0
U22G C36A | label 2
U23G C53G | label 1
C6G G7U | label 0
U29G G62A | label 2
U23G U28G | label 1
U41A A52U | label 2
C6G U60G | label 0
A5U U29C | label 1
C25G U41G | label 1
G20U G64A | label 2
C6U A8U | label 1
U10G C49U | label 2
U23G A43G | label 2
G11U A52U | label 2
C12U C17G | label 1
G7U C12G | label 1
C6U A31G | label 1
G32C | label 0
U61G | label 1
U29G G30A | label 0
C9G G64A | label 1
C9U C13U | label 0
A4G A43C | label 2

The measurements presented in this section are drawn from the RNAGym collection of RNA variant scans (doi:10.1038/nmeth.2970).
